Would you kindly list normalized growth for each of these compounds?
- Experiment Description: chemical genetic growth profiling, strain panel (AID 1159580);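 further: tested at 20 µM; growth read once vehicle control cultures reached saturation at 30 °C; 1 = growth at the plate median or of vehicle wells; lower values mean less growth of the strain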
- Applied Conditions: S. cerevisiae deletion strains, growth OD, locus YDL132W, strain cdc53, hits give low values
Among all 5,500 compounds or so, about 2,000 (36%) were called active. Another 18% or so got no clear call; they are omitted. Some of the results follow.
Give bare numbers.

The cases that follow already have their normalized growth on record.
[[record]]
compound = "Cc1c(C)c(C)c(C(=O)c2ccc(N=Cc3cc(Cl)cc(Cl)c3O)cc2)c(C)c1C"
value_measured = 0.926

[[record]]
compound = "Cc1ccc2nc(-c3ccc4c(c3)OCCO4)cn2c1"
value_measured = 0.982

[[record]]
compound = "OC(COc1ccc(F)cc1)(c1ccc(Cl)cc1)c1ccc(Cl)cc1"
value_measured = 0.987


For every item in the list below, what is its measured normalized growth?
1. Clc1ccc(CN2CCN(c3cccc4[nH]ccc34)CC2)cc1Cl
2. Clc1ccc(SCc2ccsc2-c2ncns2)cc1
3. O=[N+]([O-])c1cccc(C2CC(c3ccccc3)=Nc3ccccc3S2)c1 (stereo unspecified)

Result string:
1: 0.993; 2: 0.968; 3: 0.952

The origin of these recorded values is PubChem BioAssay AID1159580.
